Experiment: 7-day mouse toxicology study: toxicokinetics (plasma, brain, CSF), 30 mg/kg/day PO
Format: in vivo, male C57BL/6 mice
Settings: male, C57BL/6, mouse, plasma, po, 30 mg/kg, Day 7, Plasma, 30 mg/kg PO
Experimental: The PO dosing solutions were prepared in 50 mM citrate buffer (pH 4.0) at 3 mg/mL. The blood collection was performed as follows: the animal was anesthetized under isoflurane. Approximately 500 μL blood/time point was collected into K2EDTA tube via cardiac puncture for terminal bleeding. ˜200 μL blood samples were put on ice and centrifuged to obtain plasma sample (2000 g, 5 min under 4° C.) within 15 minutes of collection. ˜300 blood samples were used for hematology assay. […]

# molecule, Cmax, ng/mL
records = [
    ("Cc1cccnc1[C@@H]1CCC[C@H](c2nc3cccc(N4CCN(C)CC4)c3[nH]2)N1C (racemic)", 1210),
]

* * *

As shown below, each of these compounds has a reported IC50 value.
Target: UniProtKB P61073
Sequence (P61073 whole entry): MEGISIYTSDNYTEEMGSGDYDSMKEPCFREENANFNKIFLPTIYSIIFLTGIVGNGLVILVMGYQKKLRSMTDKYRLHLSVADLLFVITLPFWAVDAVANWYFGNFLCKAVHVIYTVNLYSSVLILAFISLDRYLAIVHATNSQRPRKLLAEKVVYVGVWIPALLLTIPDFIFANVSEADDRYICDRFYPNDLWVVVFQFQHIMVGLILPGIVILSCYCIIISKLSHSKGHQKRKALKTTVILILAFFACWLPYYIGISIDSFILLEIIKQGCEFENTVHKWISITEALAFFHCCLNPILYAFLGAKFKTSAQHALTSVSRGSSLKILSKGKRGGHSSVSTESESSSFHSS
Test: Intracellular CXCL-12-induced calcium mobilization assay (FLIPR)
Settings: U87.CXCR4 cells; CXCL-12 25-50 ng/mL; compound added 15 min before; read-out: IC50 CXCL-12 Ca^2+ flux U87.CXCR4+
Experimental: Example 36: REGA Screening Assay Intracellular CXCL-12-Induced Calcium Mobilization Assay Intracellular calcium mobilization induced by chemokines or chemokine-derived peptides were evaluated using a calcium responsive fluorescent probe and a FLIPR system. The CXCR-4 transfected U87 cell line (U87.CXCR4) cells were seeded in gelatine-coated black-wall 96-well plates at 20,000 cells per well and incubated for 12 hours. […]

# compound, IC50
measured = [
    ("Cc1cccnc1[C@@H]1CCC[C@H](c2nc3c(Br)ccc(Br)c3n2CC2CCN(C)CC2)N1C", "100 to 1000 nM"),
    ("Cc1cccnc1[C@@H]1CCC[C@H](c2nc3cccc(N4CCN(C5CC5)CC4)c3[nH]2)N1", "0.01 to 100 nM"),
    ("COCCCn1c([C@H]2CCC[C@@H](c3ncccc3C)N2C)nc2ccccc21", "≥ 1000 nM"),
    ("CN1CCC(n2ccnc2[C@H]2CCC[C@@H](c3ccccn3)N2)CC1", "≥ 1000 nM"),
    ("Cc1cccnc1[C@@H]1CCC[C@H](c2nc3cccc(N4CCNC(C)C4)c3[nH]2)N1C (stereo partly drawn)", "0.01 to 100 nM"),
    ("Cc1nccnc1[C@@H]1CCC[C@H](c2nc3cccc(N4CCN(C)CC4)c3[nH]2)N1C", "≥ 1000 nM"),
    ("Cc1cccnc1[C@@H]1CCC[C@H](c2nccn2Cc2ccccc2-n2cccn2)N1", "≥ 1000 nM"),
    ("Cc1cccnc1[C@@H]1CCC[C@H](c2nc3ccccc3n2CC2CCN(C(C)C)CC2)N1C", "0.01 to 100 nM"),
    ("Cc1cccnc1[C@@H]1CCC[C@H](c2nccn2C2CCN(C)CC2)N1C", "0.01 to 100 nM"),
    ("CN1CCC(c2cccc3nc([C@H]4CCC[C@@H](c5ncccc5Cl)N4)[nH]c23)CC1", "0.01 to 100 nM"),
    ("Cc1cccnc1[C@@H]1CCC[C@H](c2nccn2C2CCNCC2)N1C", "100 to 1000 nM"),
    ("Cc1cccnc1[C@@H]1CCC[C@H](c2nc3ccccc3n2CC2CCCNC2)N1C (stereo partly drawn)", "0.01 to 100 nM"),
    ("Cc1cccnc1[C@@H]1CCC[C@H](c2nc3cccc(N4CCNCC4)c3[nH]2)N1C", "0.01 to 100 nM"),
    ("Cc1cccnc1[C@@H]1CCC[C@H](c2nc3ccccc3n2CCCNC2CCOCC2)N1C", "0.01 to 100 nM"),
    ("Cc1cccnc1[C@@H]1CCC[C@H](c2nc3ccccc3n2CCCN2CCOCC2)N1C", "0.01 to 100 nM"),
    ("Cc1c(Cl)ccnc1[C@@H]1CCC[C@H](c2nc3cccc(N4CCN(C)CC4)c3[nH]2)N1C", "0.01 to 100 nM"),
    ("Cc1cccnc1[C@@H]1CCC[C@H](c2nc3cccc(N4C5CCC4CN(C)C5)c3[nH]2)N1C", "0.01 to 100 nM"),
    ("CN1CCC(n2ccnc2[C@H]2CCC[C@@H](c3ncccc3Cl)N2C)CC1", "≥ 1000 nM"),
]

* * *

assay: Mouse brain uptake assay (MBUA), 3 mg/kg IV, 0-24 h, 4 time points; format: in vivo, male CD1 mice; details: male, CD1, plasma; mouse, 3 mg/kg IV, 0-24 h, 4 time points
As shown below, each of these compounds has a reported clearance value.
observable: clearance (L/h/kg)

# compound, recordedNumber
rows = [
    ("CN1CCN(c2cccc3nc([C@H]4CCC[C@@H](c5ncccc5Cl)N4)[nH]c23)CC1 (racemic)", 1.57),
    ("Cc1cccnc1[C@@H]1CCC[C@H](c2nc3cccc(N4CC5CCC(C4)N5C)c3[nH]2)N1C", 1.94),
    ("Cc1cccnc1[C@@H]1CCC[C@H](c2nc3cccc(N4CCN5CCCC5C4)c3[nH]2)N1C (some centres unmarked)", 12.7),
    ("Cc1cccnc1[C@@H]1CCC[C@H](c2nc3cccc(N4CCN(C5CC5)CC4)c3[nH]2)N1C", 2.79),
    ("Cc1cc(F)cnc1[C@@H]1CCC[C@H](c2nc3cccc(N4CCN(C)CC4)c3[nH]2)N1C", 10.1),
    ("COc1ccnc([C@@H]2CCC[C@H](c3nc4cccc(N5CCN(C)CC5)c4[nH]3)N2C)c1C", 2),
    ("CN1CCC(n2ccnc2[C@H]2CCC[C@@H](c3ncccc3Cl)N2C)CC1", 3.36),
    ("CN1[C@@H](c2nc3cccc(N4CCN5CCCC5C4)c3[nH]2)CCC[C@H]1c1ncccc1Cl (some centres unmarked)", 6.14),
    ("Cc1cccnc1[C@@H]1CCC[C@H](c2nc3cccc(N4CCN(C)C5(CC5)C4)c3[nH]2)N1C", 6.89),
    ("CO[C@H]1C[C@H](c2nc3cccc(N4CCN(C)CC4)c3[nH]2)N(C)[C@H](c2ncccc2C)C1", 6.1),
    ("Cc1c(Cl)ccnc1[C@@H]1CCC[C@H](c2nc3cccc(N4CCN(C)CC4)c3[nH]2)N1C", 10.3),
]

* * *

test: MTD, pharmacokinetics and brain penetration after PO administration; assay type: in vivo, male C57BL/6 mice; details: male, C57BL/6, mouse, brain, single administration, D 1-50 mg/kg, read-out: AUClast (b)

# compound, AUC(0-t), ng·h/mL
rows = [
    ("Cc1cccnc1[C@@H]1CCC[C@H](c2nc3cccc(N4CCN(C)CC4)c3[nH]2)N1C (racemic)", 15500),
]

* * *

As shown below, each of these compounds has a reported half-life value.
experiment: Mouse brain uptake assay (MBUA), 3 mg/kg IV, 0-1 h, 3 time points; type: in vivo, male CD1 mice; conditions: male, CD1, plasma; mouse, 3 mg/kg IV, 0-1 h, 3 time points; read-out: t½ (converted)
observable: half-life (min)

# compound, recordedNumber
records = [
    ("Cc1cccnc1[C@@H]1CCC[C@H](c2nc3cccc(N4CCN(C)CC4)c3[nH]2)N1C (racemic) [I-3]", 18),
    ("Cc1cccnc1[C@@H]1CCC[C@H](c2nc3ccccc3n2CC2CCN(C(C)C)CC2)N1C [I-23]", 18.1),
    ("Cc1cccnc1[C@@H]1CCC[C@H](c2nc3cccc(N4CCN(C)CC4)c3[nH]2)N1 [I-83]", 38.2),
    ("CN1CCN(c2cccc3nc([C@H]4CCC[C@@H](c5ncccc5Cl)N4)[nH]c23)CC1 (racemic) [I-122]", 24.1),
    ("Cc1cccnc1[C@@H]1CCC[C@H](c2nc3cccc(N4CCN(C)C5(CC5)C4)c3[nH]2)N1 [I-132]", 185),
    ("CN1CCN(c2cccc3nc([C@H]4CCC[C@@H](c5ncccc5Cl)N4C)[nH]c23)CC1 [I-9]", 16),
    ("Cc1cccnc1[C@@H]1CCC[C@H](c2nc3ccccc3n2CC2CCN(C)CC2)N1C [I-15]", 17.8),
    ("COc1cccnc1[C@@H]1CCC[C@H](c2nc3cccc(N4CCN(C)CC4)c3[nH]2)N1 [I-127]", 23.2),
]

* * *

As shown below, each of these compounds has a reported Kp uu value.
assay: Mouse brain uptake assay (MBUA), 3 mg/kg IV, 0-24 h, 4 time points; assay type: in vivo, male CD1 mice; conditions: male, CD1; unbound brain/unbound plasma, mouse, 3 mg/kg IV, 0-24 h

# compound, Kp uu
records = [
    ("Cc1c(Cl)ccnc1[C@@H]1CCC[C@H](c2nc3cccc(N4CCN(C)CC4)c3[nH]2)N1C", 0.65),
    ("COc1ccnc([C@@H]2CCC[C@H](c3nc4cccc(N5CCN(C)CC5)c4[nH]3)N2C)c1C", 1.01),
    ("Cc1cccnc1[C@@H]1CCC[C@H](c2nc3cccc(N4C5CCC4CN(C)C5)c3[nH]2)N1", 0.07),
    ("CN1CCN(c2cccc3nc([C@H]4CCC[C@@H](c5ncccc5Cl)N4)[nH]c23)CC1 (racemic)", 1.15),
]
